System: MOLT-3
Assay: Cytotoxicity against MOLT3 cells assessed as alteration in morphology after 3 days
Type: functional, Homo sapiens
Conditions: Homo sapiens, MOLT-3, 72 h; read-out: MCC
For each record, write down the corresponding MCC.

Example cases with answers are listed next.
get_value(item= CCCCCCCCCCCCCCCCCCOP1(=O)CO[C@@H](Cn2cnc(N)nc2=O)CO1 (some centres undefined) , readout=MCC) returns 0.8 µg/mL

get_value(item= Nc1ncn(C[C@@H](CO)OCP(=O)(O)O)c(=O)n1 , readout=MCC) returns 16 µg/mL

get_value(item= Nc1ncn(C[C@H]2COP(=O)(O)CO2)c(=O)n1 , readout=MCC) returns 33 µg/mL

Now consider a different compound.
get_value(item= CC(C)(C)C(=O)OCOP1(=O)CO[C@@H](Cn2cnc(N)nc2=O)CO1 (some centres undefined) , readout=MCC) returns ≥ 4 µg/mL

----------
For each record, write down the corresponding EC50.
Test system: Punta Toro virus
Experiment: Antiviral activity against Punta Toro virus in Vero cells reduction of virus-induced cytopathogenicity after 4 days
Type: functional, organism-based
Details: 96 h

Example cases with answers are listed next.
Known value: Punta Toro virus EC50 of the compound CC(C)(C)C(=O)OCOP1(=O)CO[C@@H](Cn2cnc(N)nc2=O)CO1 (stereo not given in full) equals > 100 mg/L

Known value: Punta Toro virus EC50 of the compound Nc1ncn(C[C@@H](CO)OCP(=O)(O)O)c(=O)n1 equals > 100 mg/L

Known value: Punta Toro virus EC50 of the compound Nc1ccn(C[C@H]2COP(=O)(O)CO2)c(=O)n1 equals > 200 mg/L

I would be grateful if you could provide EC50 for each of the following entries.
1. O=c1[nH]c(=O)n([C@H]2C[C@H](O)[C@@H](CO)O2)cc1/C=C/Br
2. Nc1ccn(C[C@@H](CO)OCP(=O)(O)O)c(=O)n1.O.O

Result block:
1: > 200 mg/L; 2: > 31.5 mg/L

----------
Tested on: Vesicular stomatitis virus
Assay: microbe, parasite or virus in culture
Settings: HeLa
PROPERTY LABEL: EC50

Example cases with answers are listed next.
Known value: Vesicular stomatitis virus EC50 of the compound CCCCCCCCCCCCCCCCOCCOP1(=O)CO[C@@H](Cn2cnc(N)nc2=O)CO1 (stereo partly drawn) equals > 3.2 mg/L

Known value: Vesicular stomatitis virus EC50 of the compound NC(=O)c1ncn([C@@H]2O[C@H](CO)[C@@H](O)[C@H]2O)n1 [RIBAVIRIN] equals 24 mg/L

Known value: Vesicular stomatitis virus EC50 of the compound CCCCCCCCCCCCCCCCCCOP1(=O)CO[C@@H](Cn2cnc(N)nc2=O)CO1 (stereo partly drawn) equals > 40 mg/L

Known value: Vesicular stomatitis virus EC50 of the compound Nc1ncn(C[C@H]2COP(=O)(O)CO2)c(=O)n1 equals > 200 mg/L

Known value: Vesicular stomatitis virus EC50 of the compound O=c1[nH]c(=O)n([C@H]2C[C@H](O)[C@@H](CO)O2)cc1/C=C/Br [BRIVUDINE] equals 200 mg/L

I would be grateful if you could provide EC50 for each of the following entries.
1. Nc1ncn(C[C@@H](CO)OCP(=O)(O)O)c(=O)n1
2. CC(C)(C)C(=O)OCOP1(=O)CO[C@@H](Cn2cnc(N)nc2=O)CO1 (stereo partly drawn)
3. Nc1ccn(C[C@@H](CO)OCP(=O)(O)O)c(=O)n1.O.O [CIDOFOVIR]

Result block:
["> 100 mg/L", "> 20 mg/L", "> 31.5 mg/L"]

Source of measurements: ChEMBL document CHEMBL1138246
